Target: FAP-expressing human WI-38 fibroblasts (Homo sapiens, UniProt Q12884)
Construct: FAP-expressing human WI-38 fibroblasts (ECACC) were cultured in EMEM; host or cells: WI-38 human fibroblasts
Sequence (Q12884 1-760): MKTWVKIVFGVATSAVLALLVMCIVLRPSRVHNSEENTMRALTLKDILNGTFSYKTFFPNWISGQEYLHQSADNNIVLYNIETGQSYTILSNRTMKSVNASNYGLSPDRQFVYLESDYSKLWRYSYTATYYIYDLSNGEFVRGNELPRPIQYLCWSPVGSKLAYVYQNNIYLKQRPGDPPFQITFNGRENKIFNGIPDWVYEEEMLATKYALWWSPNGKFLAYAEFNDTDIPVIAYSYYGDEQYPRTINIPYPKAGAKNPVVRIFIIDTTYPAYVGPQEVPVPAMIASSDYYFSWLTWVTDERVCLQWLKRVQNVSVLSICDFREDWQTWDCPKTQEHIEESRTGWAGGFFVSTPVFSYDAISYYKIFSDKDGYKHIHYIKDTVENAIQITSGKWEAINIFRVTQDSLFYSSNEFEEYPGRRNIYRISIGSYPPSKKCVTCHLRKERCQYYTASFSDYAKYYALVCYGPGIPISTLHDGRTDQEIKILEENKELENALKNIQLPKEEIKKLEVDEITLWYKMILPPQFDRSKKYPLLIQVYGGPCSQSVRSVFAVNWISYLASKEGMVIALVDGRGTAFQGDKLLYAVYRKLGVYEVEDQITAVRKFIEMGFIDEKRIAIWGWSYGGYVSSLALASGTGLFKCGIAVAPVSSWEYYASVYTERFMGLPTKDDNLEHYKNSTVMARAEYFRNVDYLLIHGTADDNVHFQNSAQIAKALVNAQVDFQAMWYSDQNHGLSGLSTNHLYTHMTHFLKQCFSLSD
Experiment: Competitive FACS binding assay
Conditions: pIC50 Category (FACS), competition with 3 nM Cy5-labeled compound, 4° C., 1 hour
Numbered stars: 1 amine (or outer) side, 2 acyl side, 3 side chain; on linkers, the order of the positions; unused ones are H or OH. Bridge positions count the residues as written; N and C are the ends. Peptide text beside a SMILES is read from it. * marks the point of attachment. X52 = NCCOCCOCC(=O)N1CCN(Cc2cc(C[*:1])cc(C[*:2])c2)CC1; Hexanoyl = CCCCCC(=O)*
For each entry below, report its IC50 value.

Field: example entries. Status: answers known.
>  <compound>
CCCCCC(=O)N[C@H]1CSCc2cc(cc(CN3CCN(C(=O)COCCOCCN)CC3)c2)CSC[C@@H](C(=O)N[C@@H](CC(=O)O)C(N)=O)NC(=O)[C@H](Cc2ccccc2)NC(=O)[C@H](CCC(N)=O)NC(=O)[C@H]([C@@H](C)O)NC(=O)[C@@H]2CCCN2C(=O)[C@@H]2CCCN2C1=O [3BP-3967] (Hexanoyl-CPPTQFCD-NH2; linker 1-7 via X52)

>  <tested-system>
FAP-expressing human WI-38 fibroblasts (Homo sapiens, UniProt Q12884)

>  <readout-kind>
IC50

>  <val>
< 10 nM

$$$$
>  <compound>
CCCCCC(=O)N[C@H]1CSCc2cc(CSCCNC(=O)CN3CCN(CC(=O)O)CCN(CC(=O)O)CCN(CC(=O)O)CC3)cc(c2)CSC[C@@H](C(=O)O)NC(=O)[C@H](Cc2ccccc2)NC(=O)[C@H](CCC(N)=O)NC(=O)[C@H]([C@@H](C)O)NC(=O)[C@@H]2C[C@@H](O)CN2C(=O)[C@@H]2CCCN2C1

>  <tested-system>
FAP-expressing human WI-38 fibroblasts (Homo sapiens, UniProt Q12884)

>  <readout-kind>
IC50

>  <val>
< 10 nM

$$$$

Consider now this further compound.
input: # get_value(readout= IC50, system= FAP-expressing human WI-38 fibroblasts (Homo sapiens, UniProt Q12884)) for `CCCCCC(=O)N[C@H]1CSCc2cc(CSCCNC(=O)CCCN(C)C(=O)c3ccccc3-c3c4ccc(=N)c(S(=O)(=O)O)c-4oc4c(S(=O)(=O)O)c(N)ccc34)cc(c2)CSC[C@@H](C(=O)O)NC(=O)[C@H](Cc2ccccc2)NC(=O)[C@H](CCC(N)=O)NC(=O)[C@H]([C@@H](C)O)NC(=O)[C@@H]2CCCN2C(=O)[C@@H]2CCCN2C1=O`
output: 10 to 79.4 nM
